test_summary: Intravenous pharmacokinetic study of Daporinad in mice (plasma, LC-qTOF-MS, NCA)
Type: in vivo, mouse
measurement_setup: male, ICR, mouse plasma, 10 mg/kg, n = 3
recorded_metric: Cmax (ng/mL)
One number for each entry, in ng/mL.

If you can, please state the reported Cmax value of O=C(/C=C/c1cccnc1)NCCCCC1CCN(C(=O)c2ccccc2)CC1 [Daporinad] .
14900

----------
test_summary: Intravenous pharmacokinetic study of Daporinad in mice (plasma, LC-qTOF-MS, NCA)
Assay type: in vivo, mouse
measurement_setup: male, ICR, mouse plasma, 5 mg/kg, n = 3
recorded_metric: AUC(0-t) (ng·h/mL)
Numbers only, in ng·h/mL.

If you can, please state the reported AUC(0-t) value of O=C(/C=C/c1cccnc1)NCCCCC1CCN(C(=O)c2ccccc2)CC1 .
2860

Reference source for all entries: paper PMC8954816
